Tested on: VchCAST RNA-guided transposition machinery (E. coli BL21(DE3) host, lacZ target)
Test Summary: relative integration efficiency (T-LR orientation) vs wild-type transposon end (log2 (normalized fold change)); transposon end mutated: right end (5 bp flank + 75 bp right end); higher = more efficient transposition
Kindly supply the reported relative integration efficiency (log2) values for the records listed here.
One number for each entry.

ACATTTGTTGATACACCCATAAATTGATATTGCCAACCATAAAGTGATATTTATCACAACCATATATTGATATCTCCTCTGATCATAGTCAGACCAACATTGCTACGACCCGTATTCGCACCGACAC 0.117
ACATTTGTTGATACAACCATAAAAGGATCATTACACCCATCAATTGATAATTATCCCACCCAATTTAACTATAACGCTCTGATCATAGTCAGACCAACATTGCTACGACCCGTATTCGCACCGACAC 0.119
ACATTTGTTGATACACCCATAAATTGATAATTACACCCATAAATTGATAATTATCAGTGGGTATTTAACTATAACGCTCTGATCATAGTCAGACCAACATTGCTACGACCCGTATTCGCACCGACAC 2.54
ACATTTGTTGATACAACCATAAAATGATAATTACACCCATAAATTGATAATTATCACACCCATAAATTGATATTGCCTCTGATCATAGCAACCATAAAATGATAATTATCAGACCAAGCACCGACAC -0.337
ACATTTGTTGATACAACCATAAAATGGTAATTCCACCCCTAAATTGATAATTATCACACCCAATTTAACTATAACGCTCTGATCATAGTCAGACCAACATTGCTACGACCCGTATTCGCACCGACAC -0.518
ACATTTGTTGATAGAACCATAAAATGATAATTAGACCCATAAATTGATAATTATCAGACCCATAAATTGATATTGCCTCTGATCATAGTCAGACCAACATTGCTACGACCCGTATTCGCACCGACAC -0.628
ACATTTGTGGATACAACCCTAAAATGATAATTACACCCATAAATTGATCATTATCACACCCAATTTAACTATAACGCTCTGATCATAGTCAGACCAACATTGCTACGACCCGTATTCGCACCGACAC 0.117
ACATTTGTTGATATGTTGATCAACCATAAAATGATAATTACACCCATAAATTGATAATTATCACACCCATAAATTGATATTGCCTCTGATCATAGTCAGACCAACATTGCTACGACCCGTATTCGCA -3.71

Batch request: relative integration efficiency (log2) for each of the following sequences.
1. ACATTTGTTGATACAACCATAAAATGATAATTACACCCATAAATTGATAATTATCACACCCATAAATTGATATTGCTCTGATCATAGTCAGACCAACATTGCTACGACCCGTATTCGCACCGACACT
2. ACATTTGTTGATACACCCATAAATTGATAATTACACCCATAAATTGATATTGCTCACAACCATAAGTTGATATTTTCTCTGATCATAGTCAGACCAACATTGCTACGACCCGTATTCGCACCGACAC

1: -0.11; 2: 0.079

The reported measurements were obtained from the supplement of paper PMC10201428.
